Where these numbers come from: patent US20240343803A1

target: T1, Fusion protein of extracellular domain of human TIGIT and human IgG1 Fc fragment (human TIGIT ECD-hFc) (human); assay: blocking of TIGIT ECD-hFc binding to CHO-K1 CD155 cells
T1 construct: The entry includes the signal peptide (limits not recoverable) and the human IgG1 Fc
T1 sequence (chain, as listed by the source limits assumed): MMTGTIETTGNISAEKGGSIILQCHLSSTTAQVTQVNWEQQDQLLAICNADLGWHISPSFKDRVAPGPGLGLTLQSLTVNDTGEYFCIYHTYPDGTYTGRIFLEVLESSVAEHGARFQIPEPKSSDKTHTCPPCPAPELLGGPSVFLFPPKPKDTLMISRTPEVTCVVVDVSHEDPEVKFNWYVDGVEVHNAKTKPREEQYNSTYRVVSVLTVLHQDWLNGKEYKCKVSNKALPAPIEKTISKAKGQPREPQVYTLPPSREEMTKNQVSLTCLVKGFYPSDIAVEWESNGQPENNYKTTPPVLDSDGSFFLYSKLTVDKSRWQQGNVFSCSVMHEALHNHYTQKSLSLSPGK
Entries and their IC50

binder	IC50
TIGIT-006-H2L2 (antibody, V domains shown, Humanized anti-TIGIT antibody) VH: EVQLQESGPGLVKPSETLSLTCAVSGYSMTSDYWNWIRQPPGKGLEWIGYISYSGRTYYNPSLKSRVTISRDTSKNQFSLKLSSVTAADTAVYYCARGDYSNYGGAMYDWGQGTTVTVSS VL: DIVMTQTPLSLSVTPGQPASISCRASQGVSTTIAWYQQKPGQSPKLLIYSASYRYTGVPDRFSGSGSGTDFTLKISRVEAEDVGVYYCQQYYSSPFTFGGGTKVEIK	904 pM
TIGIT-005-H2L1a (antibody, V domains shown, Humanized anti-TIGIT antibody with NG-site mutation in VL) VH: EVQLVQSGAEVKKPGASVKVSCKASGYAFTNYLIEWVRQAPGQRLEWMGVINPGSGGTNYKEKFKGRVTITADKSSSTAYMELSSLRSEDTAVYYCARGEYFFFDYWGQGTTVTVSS VL: DIVMTQSPDSLAVSLGERATINCKASQHVSQGVAWYQHKPGQSPKLLIYSASYRYTGVPDRFSGSGSGTDFTLTISSLQAEDVAVYYCQQHYNTPHTFGGGTKVEIK	716 pM
TIGIT-002-H2L2 (antibody, V domains shown, Humanized anti-TIGIT antibody) VH: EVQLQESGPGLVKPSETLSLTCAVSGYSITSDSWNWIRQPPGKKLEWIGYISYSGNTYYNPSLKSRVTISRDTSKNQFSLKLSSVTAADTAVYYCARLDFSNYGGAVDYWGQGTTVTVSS VL: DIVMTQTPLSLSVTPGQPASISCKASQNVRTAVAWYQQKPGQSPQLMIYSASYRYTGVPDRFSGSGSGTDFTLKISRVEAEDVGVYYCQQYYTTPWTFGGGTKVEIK	560 pM
